experiment_notes: NCI Yeast Anticancer Drug Screen. Data for the cln2 rad14 strain (AID 165);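 also: 0% = growth equal to vehicle treated cultures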
test_settings: S. cerevisiae cln2 rad14 strain, at 50.0 µM (retest, dose inferred, filed as 5.0), stronger effect = higher value
This is part of a sample that, as a whole, favours compounds with a hit. Of some 79,000 tested, about 15% had one in any assay.
measure: growth inhibition (%)
Report as a plain number; the unit % is understood.

Example entries begin here.
>  <molecule>
O=C1C2CC(Cl)C(SSC3CC4C(=O)N(SC(Cl)(Cl)C(Cl)Cl)C(=O)C4CC3Cl)CC2C(=O)N1SC(Cl)(Cl)C(Cl)Cl (stereo not given)

>  <growth inhibition / %>
-57

$$$$
>  <molecule>
COc1c(Br)cc(/C=C(/C)[N+](=O)[O-])cc1Br

>  <growth inhibition / %>
61

$$$$

// query I would be grateful if you could share the reported growth inhibition for O=[n+]1c2ccccc2n([O-])c2ccccc21.[Cl][Ni][Cl] .
// result 98

// query I would be grateful if you could share the reported growth inhibition for Clc1ccc2c(NCCCCN3OC3c3ccccc3)ccnc2c1 (stereo not given) .
// result 32

// query I would be grateful if you could share the reported growth inhibition for CCC[N+](CCC)(CCC)CCC.N#CN=C([SH2+])[SH2+].N#CN=C([SH2+])[SH2+].[Pt+2] .
// result -7

----------
experiment_notes: NCI Yeast Anticancer Drug Screen. Data for the cln2 rad14 strain (AID 165);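 also: 0% = growth equal to vehicle treated cultures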
test_settings: S. cerevisiae cln2 rad14 strain, at 5.0 µM (retest, dose inferred, filed as 0.5), stronger effect = higher value
About 79,000 compounds went through this panel and 15% of them were active in at least one assay; those are over-represented in the sample as a whole.
# if value of growth inhibition reaches 30%, tag YES; if it stays below, tag NO

Worked examples follow.
>  <compound>
O=C1C(F)=C(N2CC2)C(=O)C(F)=C1N1CC1

>  <label_class>
YES

$$$$
>  <compound>
ClC1=C(Cl)C2(Cl)C3CC4OC4C=CC3C1(Cl)C2(Cl)Cl (centres undefined)

>  <label_class>
NO

$$$$
>  <compound>
O=[N+]([O-])c1ccc2c[n+]3ccccc3cc2c1

>  <label_class>
NO

$$$$
>  <compound>
Oc1ccc(Cl)cc1Cc1ccccc1

>  <label_class>
YES

$$$$
>  <compound>
C/C1=C\[C@@H](O)C(=O)/C=C/C=C\c2csc(n2)[C@@H](C)NC(=O)C[C@@]2(CC1)S(=O)SC(=O)[C@]2(C)O (some centres undefined)

>  <label_class>
YES

$$$$
>  <compound>
NC(Cc1c[nH]c2ccccc12)P(=O)(O)O (centres undefined)

>  <label_class>
NO

$$$$
>  <compound>
CCC/C=[CH]/[Hg][Cl]

>  <label_class>
YES

$$$$
>  <compound>
C(CCC[Te][Te]CCCCCCOC1CCCCO1)CCOC1CCCCO1 (centres undefined)

>  <label_class>
NO

$$$$

Now examine the next entry.
// query Exam item: decide whether the reported growth inhibition for CN1c2cccc[c]2[Sn]([CH3])([CH3])[c]2ccccc21 is at least 30%.
// result YES

----------
experiment_notes: NCI Yeast Anticancer Drug Screen. Data for the bub3 strain (AID 167)
test_settings: S. cerevisiae bub3 mutant strain, at 11.0 µM
This is part of a sample that, as a whole, favours compounds with a hit. Of some 79,000 tested, about 15% had one in any assay. Calls of active or inactive are those of the source. No stated cut-off is given here; in the data, active means growth inhibition above about 70%; inactive means the rest.
Valid outcomes are listed here; reply with one: y for active, n for inactive

Worked examples follow.
>  <compound>
[Pt].c1ccc(P(CCP(c2ccccc2)c2ccccc2)CCP(c2ccccc2)c2ccccc2)cc1

>  <label_class>
n

$$$$
>  <compound>
CC1CC(Br)C(=O)O1 (stereo unspecified)

>  <label_class>
y

$$$$
>  <compound>
NCCc1ccc(OCc2ccccc2)c(OCc2ccccc2)c1

>  <label_class>
n

$$$$
>  <compound>
C[C@]12CCC(=O)C=C1CC[C@@H]1C2CC[C@@]2(C)C1CC[C@@H]2OC(=O)C12OC1CCC2=O (stereo partly specified)

>  <label_class>
n

$$$$
>  <compound>
CCS(=O)(=O)[O][Sn]([CH2]C)([CH2]C)[O]S(=O)(=O)CC

>  <label_class>
n

$$$$
>  <compound>
Oc1cccnc1[Se]

>  <label_class>
n

$$$$
>  <compound>
CCCCCNC(=O)c1c(O)[nH]c(=S)[nH]c1=O

>  <label_class>
n

$$$$
>  <compound>
C/C(CCl)=N/NC1=NC(c2ccccc2Cl)P(=O)(NCCCNP2(=O)SC(N/N=C(/C)CCl)=NC2c2ccccc2Cl)S1 (stereo unspecified)

>  <label_class>
n

$$$$

// query In this assay, the call recorded for O=c1c2ccccc2[se]n1-c1cccnc1 was what?
// result y

// query In this assay, the call recorded for C=CC[N+]12CN3CN(CN(C3)C1)C2 was what?
// result n

// query In this assay, the call recorded for COc1cc([C@@H]2c3cc4c(cc3C[C@@H]3COC(=O)C32)OCO4)cc(OC)c1O (stereo partly specified) was what?
// result n
